- Tested on: LOX IMVI
- measurement.description: NCI tumour cell line growth inhibition, 48 h
Activity calls are given as the source filed them. Rule as the data show it: active = GI50 up to about 1.1 µM and inactive = higher.
measured.attribute: GI50

COc1cc2c(cc1OCCCCCOc1cc3c(cc1OC)C(=O)N1CCC[C@H]1CN3)N=C[C@@H]1CCCN1C2=O	1.34 µM (inactive)
COC(=O)c1cc(-c2ccc(OC)c(OC)c2)oc1-c1ccc(OC)c(OC)c1	28.1 µM (inactive)
CCOC(=O)c1ccc(/N=N\c2ccc(N(CCC#N)CCC#N)cc2C)cc1	> 100 µM (inactive)
CCCCCc1c(CCCC)c(O)nc2nc(NC(=O)CCCC)ccc12	> 100 µM (inactive)

Input line: Record request: GI50 value, item "O=c1c2ccc(S(=O)(=O)c3ccc4c(=O)n5c6ccccc6nc5c5cccc3c45)c3cccc(c32)c2nc3ccccc3n12"
Output line: > 100 µM (inactive)

====

I'd appreciate it if you could supply GI50 values for the items below.
- Test system: OVCAR-5
- measurement.description: NCI tumour cell line growth inhibition, 48 h
Calls of active or inactive are those of the source. No stated cut-off is given here; in the data, active = GI50 up to about 1.1 µM and inactive = higher.

Completed entries (count: 5):
O=C1CSC2(CC(/C=C/c3cccs3)=NN2c2cccc(S(=O)(=O)O)c2)N1c1nc2ccccc2s1 (stereo not given)	> 100 µM (inactive)
O=C1c2ccccc2C2CCC1c1ccccc12 (stereo not given)	> 100 µM (inactive)
COc1ccc(-c2cc(-c3ccc(O)cc3O)c(C#N)c(=O)[nH]2)cc1	18.6 µM (inactive)
CCN(CC)CCCNC(=O)Cc1ccccc1Nc1c(Cl)cccc1Cl	11.4 µM (inactive)
O=c1ccn(Cc2ccccc2CCl)c(=O)[nH]1	21.5 µM (inactive)

Hi there! I need GI50 for each item below, if you can.
1. CC(C)c1cccc2sc(NC(=O)C(=O)CC(=O)c3ccc(F)cc3)nc12
2. CN(C)c1ccc(C(C#N)NNC(=O)Cc2ccccc2)cc1 (stereo not given)
3. CCCCCCCCCCCCCCCCNc1ccn(C2CC(OP(=O)(O)OCC3OC(n4cc(CC)c(=O)[nH]c4=O)CC3O)C(CO)O2)c(=O)n1 (stereo not given)
4. Cc1cc(C)nc(SC(C)C(=O)N/N=C/c2ccc(OCc3ccccc3)cc2)n1 (stereo not given)
5. CCCCC1(C2c3ccccc3Oc3ccccc32)C(=O)N(c2ccccc2)N(c2ccccc2)C1=O

Output line:
> 100 µM (inactive)
> 100 µM (inactive)
23.9 µM (inactive)
78.9 µM (inactive)
> 100 µM (inactive)

====

- Test system: PC-3
- measurement.description: NCI tumour cell line growth inhibition, 48 h
Activity calls are given as the source filed them. Rule as the data show it: active = GI50 up to about 1.1 µM and inactive = higher.
I'd appreciate it if you could supply GI50 values for the items below.

Completed entries (count: 5):
COc1ccc(NC(=S)N/N=C2\C(=O)Nc3ccccc32)cc1	19.2 µM (inactive)
O=C(/C=C/c1cccc(Oc2ccccc2)c1)NCc1ccc(C(=O)NCCc2ccccc2)cc1	> 100 µM (inactive)
C=C1C(=O)O[C@H]2C3C(=C(C)CC[C@@H]12)C(=O)[C@@H]1OC31C (stereo partly specified)	2.69 µM (inactive)
CCCCCc1c(CCCC)c(O)nc2nc(NC(=O)CCCC)ccc12	> 100 µM (inactive)
Nc1nc2c(ncn2Cc2ccccc2CO)c(=O)[nH]1	> 100 µM (inactive)

Hi there! I need GI50 for each item below, if you can.
1. CN(C)c1ccc(C(N)=O)cn1
2. O=C(Cn1ccnc1[N+](=O)[O-])NCCO
3. CSc1ccc(/C=C2\N=C(c3ccccc3)N(/N=C3\C(=O)Nc4ccccc43)C2=O)cc1
4. CC(C)(C)c1cc(C(C)(C)C)c(P=C(Cl)Cl)c(C(C)(C)C)c1 (stereo unspecified)
5. O=C(O)c1nnsc1-c1csnn1
6. CCN(CC)CC1CCCCN1CC(=O)N1c2ccccc2C(=O)Nc2cccnc21 (stereo unspecified)

Output line:
> 100 µM (inactive)
> 100 µM (inactive)
> 100 µM (inactive)
> 100 µM (inactive)
> 100 µM (inactive)
36.8 µM (inactive)
